# System: MCF7
# ASSAY_NOTES: Induction of autophagy in human MCF7 cells assessed as p62/GAPDH ratio (reference value: 0.96)
# Assay type: functional
MEASURED_ENDPOINT: Ratio
Give the figure only, with no unit attached.

Lookup: Param item = "COc1c(C)c(O)c(C(=O)C(C)C)c(O)c1Cc1c(O)c(C(=O)C(C)C)c(O)c(C)c1OC" ; retrieve measured Ratio.
Found: 0.73

Lookup: Please do the same for "CCCCC(=O)c1c(O)c(C)c(O)c(Cc2c(O)c(C)c(O)c(C(=O)CCCC)c2OC)c1OC" as well.
Found: 0.84

Lookup: Same for "CCCCCc1c(O)c(C)c(OC)c(Cc2c(O)c(CCCCC)c(O)c(C)c2OC)c1O"
Found: 0.97

Lookup: How about this compound: "CCCCC(=O)c1c(O)c(C)c(OC)c(Cc2c(O)c(C(=O)CCCC)c(O)c(C)c2OC)c1O"
Found: 0.86

Lookup: Same again, this time with "COc1c(Cc2c(O)c(C)c(O)c(C(=O)C(C)C)c2OC)c(O)c(C)c(O)c1C(=O)C(C)C"
Found: 0.92

Lookup: What do you get for "COc1c(C)c(O)c(C(=O)C(C)(C)C)c(O)c1Cc1c(O)c(C(=O)C(C)(C)C)c(O)c(C)c1OC" ?
Found: 1.18

Lookup: Another compound to check: "COc1c(C)c(O)c(CC(C)C)c(O)c1Cc1c(O)c(CC(C)C)c(O)c(C)c1OC"
Found: 0.95
